Property: hERG current change (%, negative = inhibition) at 10uM; scope: individual compounds
Molecular target: human ether-à-go-go-related gene (hERG) potassium channel (human, UniProt Q12809);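 further: peak tail current of the secondary pulse compared with the same well before compound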
Sequence (Q12809 whole entry, looked up): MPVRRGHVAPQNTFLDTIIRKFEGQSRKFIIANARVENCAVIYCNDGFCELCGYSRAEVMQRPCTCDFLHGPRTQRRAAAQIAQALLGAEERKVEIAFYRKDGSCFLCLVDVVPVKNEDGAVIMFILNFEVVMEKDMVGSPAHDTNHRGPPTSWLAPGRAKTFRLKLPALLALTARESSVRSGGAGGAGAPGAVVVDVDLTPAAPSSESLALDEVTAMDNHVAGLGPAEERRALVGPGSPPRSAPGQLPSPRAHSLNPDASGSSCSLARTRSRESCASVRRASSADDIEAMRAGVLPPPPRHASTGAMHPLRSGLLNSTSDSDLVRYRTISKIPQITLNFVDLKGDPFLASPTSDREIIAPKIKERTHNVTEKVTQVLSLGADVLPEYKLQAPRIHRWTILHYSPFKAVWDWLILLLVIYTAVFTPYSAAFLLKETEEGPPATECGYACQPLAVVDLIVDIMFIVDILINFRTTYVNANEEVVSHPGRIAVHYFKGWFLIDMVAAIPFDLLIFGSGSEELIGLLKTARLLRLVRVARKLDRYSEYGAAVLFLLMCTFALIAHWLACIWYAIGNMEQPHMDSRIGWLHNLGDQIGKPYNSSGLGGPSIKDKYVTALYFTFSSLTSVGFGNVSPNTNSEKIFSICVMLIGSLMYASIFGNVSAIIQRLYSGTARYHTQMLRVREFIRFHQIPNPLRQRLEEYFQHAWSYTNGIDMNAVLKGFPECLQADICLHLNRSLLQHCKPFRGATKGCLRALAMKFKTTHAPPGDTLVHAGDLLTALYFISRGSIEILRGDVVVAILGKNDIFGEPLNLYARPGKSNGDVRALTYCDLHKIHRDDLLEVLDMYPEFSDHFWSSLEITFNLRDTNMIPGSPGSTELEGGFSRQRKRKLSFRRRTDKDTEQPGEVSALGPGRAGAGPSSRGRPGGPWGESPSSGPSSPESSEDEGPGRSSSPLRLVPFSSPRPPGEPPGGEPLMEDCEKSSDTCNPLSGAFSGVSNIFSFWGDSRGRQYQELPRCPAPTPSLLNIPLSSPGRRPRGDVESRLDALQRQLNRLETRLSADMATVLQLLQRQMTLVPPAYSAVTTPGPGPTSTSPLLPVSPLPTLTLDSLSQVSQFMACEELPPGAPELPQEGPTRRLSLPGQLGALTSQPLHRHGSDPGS
Test: primary screen, population patch clamp on CHO cells stably expressing hERG; higher = less effect of the substance
In all, about 310,000 compounds went through this assay and about 14,000 (4.5%) showed an effect of 50% or more. Effects have a minus sign here. The sample holds strong results, similar compounds and a random draw of the others, so the mix is not that of the screen.
The reply should contain only the number, in %.

# COMPOUND, TEST VALUE
rows = [
    ("COc1ccc2c(c1)c(C(=O)CN1CCN(C)CC1)c(C)n2Cc1ccccc1", -35),
    ("Cc1cccc(NS(=O)(=O)c2cc3c4c(c2)CCC(=O)N4CCC3)c1", -21.6),
    ("COc1ccc2c(c1)c(C(=O)CN1CCC3(CC1)OCCO3)c(C)n2Cc1ccccc1", -53),
    ("O=C(NO)c1ccccc1C(F)(F)F", 15.4),
]

From here, focus on the item given below.
q: Using known records, supply hERG current change (%, negative = inhibition) at 10uM for COc1cc(C(=O)N2CCN(c3ccc(C)cc3C)CC2)cc(OC)c1OC
a: -19.7

Origin of values: paper PMC4336329
